tested on: HOP-92 NSCLC; assay: NCI-60 one-dose screen, 48 h (100 = growth as untreated, 0 = no growth, -100 = all killed); details: 10 µM unless noted
About 83,000 compounds went through this panel and 20% of them were active in at least one assay; those are over-represented in the sample as a whole. Calls of active or inactive are those of the source. The calls were made as follows: active = growth percent below 10; inactive = the rest.

Compound	growth
COc1ccc(CNc2c3ccccc3nc3ccccc23)cc1OC	-9.67% (active)
O=C(Nc1ncc(Cc2ccc(Cl)cc2)s1)c1ccc2c(c1)OCCO2	60.6% (inactive)
CC(C)(C)n1cc(-c2ccnc(NCCNS(=O)(=O)c3cccc4ccccc34)c2)c(-c2cccc(O)c2)n1	64.5% (inactive)
C/C(=C(\c1ccc(OCCCN(C)C)cc1)c1ccc(OC(=O)Cc2ccccc2)cc1)c1ccc(Cl)cc1	51.8% (inactive)
Cn1cc(-c2nc(-c3c[nH]c4c(Cl)nccc34)cs2)c2ccccc21	80.4% (inactive)
CN1CCN(CC(=O)N(C)c2ccc(N=C(c3ccccc3)c3c(O)[nH]c4ccc([N+](=O)[O-])cc34)cc2)CC1	87.9% (inactive)
O=C(N/N=C/c1ccccc1Cl)c1ccccc1Nc1ccnc(C(F)(F)F)c1	-17.1% (active)
O=C(OCc1ccc2c(Br)cc(Br)c(O)c2n1)N1CCN(C(=O)c2cc3ccccc3[nH]2)CC1	25.7% (inactive)
COc1ccc(NC(=O)c2ccc(Cl)cc2Cl)cc1	104% (inactive)
COc1cccc2cc(N(C)c3ncnc4ccccc34)ccc12	28.1% (inactive)
CCOC(=O)C1=C(c2ccccc2)N=C2N(c3ccccc3)N=C(C(C)=O)N2C1c1ccc(Br)cc1 (stereo not given)	89.5% (inactive)
CCOC(=O)CC1CSC(N/N=C/c2ccc(O)cc2)=N1 (stereo not given)	80.3% (inactive)
Nc1ncc(-c2ccc3ncnc(N4CCc5ccc(Cl)cc54)c3c2)cn1	-34.5% (active)
O=C1/C(=C/c2cccc([N+](=O)[O-])c2)COc2ccc(O)c(O)c21	-43.1% (active)
COC(=O)c1nc(-c2ccccc2)oc1S(=O)(=O)NCC(c1ccc(Cl)cc1)N1CCCCC1 (stereo not given)	48.8% (inactive)
CC/C(=C(/c1ccc(Cl)cc1)c1ccc(OCCN2CCCC2)cc1)c1ccccc1	57.5% (inactive)
O=C(Nc1ccccc1CNc1nc(Nc2ccc(OCCN3CCCC3)cc2)ncc1Cl)NC1CCCCC1	65.5% (inactive)
Cn1cc(-c2ccc3occ(-c4cccc(-c5ccncc5)c4)c3n2)cn1	50.6% (inactive)
NCCCCCNc1noc(Cc2c[nH]c3cc(Br)ccc23)n1	19.7% (inactive)
CCOC(=O)C#Cc1c(CC(=O)OCC)nnn1[C@H]1O[C@@H](CO)[C@@H]2OC(C)(C)O[C@@H]21	75.1% (inactive)

###

system: MCF7 breast; experiment: NCI-60 one-dose screen, 48 h (100 = growth as untreated, 0 = no growth, -100 = all killed); conditions: 10 µM unless noted
This is part of a sample that, as a whole, favours compounds with a hit. Of some 83,000 tested, about 20% had one in any assay.
Value Kind: growth (%)

Compound	Observed Value
NS(=O)(=O)Oc1cccc(-c2nc3sccn3c2-c2ccccc2)c1	26.1
CC1=NC(=S)NC(c2ccccc2)/C1=C1/CC(c2ccccc2O)NN1 (stereo not given)	102
COc1ccc(-c2cc(-c3ccc(Cl)cc3)c(C#N)c(=O)n2CCCCC(=O)NO)cc1	76.7
O=C(/C=C\c1ccc(O)c(O)c1)c1ccccc1O	48
C#Cc1cccc(Nc2ncnc3ccc(-c4cnc(Cl)c(NS(C)(=O)=O)c4)cc23)c1	-0.512
CN(C)c1ccc(/C=C/C2=[N+](C)c3ccccc3C2(C)C)cc1	5.64
Cc1c(N2CCCCC2)[nH]c2ccccc12	111
C(=N\Nc1nnc2n1N=C(c1ccccc1)CS2)/c1ccc(OCc2ccccc2)cc1	82.9
COC(=O)CCc1c(/C=C2\N=C(c3ccc[nH]3)C=C2OC)[nH]c(C)c1C(=O)OCc1ccccc1	7.6
CCCCCCCCNC(=O)[C@@H](N)CSCOC(C)=O	108
